tested on: M14; test: NCI-60 screening, one-dose (10 µM) and five-dose, SRB; assay type: cell-based, human; settings: Homo sapiens; five-dose; M14
observation type: IC50 (µM)

>>> number("Cc1nc(SCC(=O)N2CCN(c3cc4c(cc3F)c(=O)c(C(=O)O)cn4C3CC3)CC2)sc1C(=O)/C=C/c1cccc(Cl)c1")
69.2

---

tested on: OVCAR-5; assay: NCI-60 screening, one-dose (10 µM) and five-dose, SRB; type: cell-based, human; settings: Homo sapiens; five-dose; OVCAR-5
Overview of reported IC50 across a group of molecules:
observation type: IC50

>>> result("Cc1nc(SCC(=O)N2CCN(c3cc4c(cc3F)c(=O)c(C(=O)O)cn4C3CC3)CC2)sc1C(=O)/C=C/c1cccc(F)c1")
"> 100 µM"
>>> result("Cc1nc(SCC(=O)N2CCN(c3cc4c(cc3F)c(=O)c(C(=O)O)cn4C3CC3)CC2)sc1C(=O)/C=C/c1cccc(Cl)c1")
"> 100 µM"

---

Experiment: In vitro cytotoxicity against normal cell line WI 38
Assay type: cell-based
Settings: human, WI-38 normal cell line; WI38, 6.3uM
Source text: Detailed results of cytotoxicity of compounds 4b and 4d against normal cell Blank CC Sample No. 4b/WI38 sample no. 4d/WI38 conc. viability conc. viability
observation type: viability at 6.3 µM (%)

>>> number("Cc1nc(SCC(=O)N2CCN(c3cc4c(cc3F)c(=O)c(C(=O)O)cn4C3CC3)CC2)sc1C(=O)/C=C/c1cccc(Cl)c1 [Compound 4b]")
63.5
>>> number("Cc1nc(SCC(=O)N2CCN(c3cc4c(cc3F)c(=O)c(C(=O)O)cn4C3CC3)CC2)sc1C(=O)/C=C/c1cccc(F)c1 [Compound 4d]")
64.1

---

test system: MDA-MB-435; experiment: NCI-60 screening, one-dose (10 µM) and five-dose, SRB; type: cell-based; conditions: Homo sapiens, MDA-MB-435
observation type: IC50 (µM)

>>> number("Cc1nc(SCC(=O)N2CCN(c3cc4c(cc3F)c(=O)c(C(=O)O)cn4C3CC3)CC2)sc1C(=O)/C=C/c1cccc(F)c1 [Compound 4d]")
6.9
>>> number("Cc1nc(SCC(=O)N2CCN(c3cc4c(cc3F)c(=O)c(C(=O)O)cn4C3CC3)CC2)sc1C(=O)/C=C/c1cccc(Cl)c1 [Compound 4b]")
7.4

---

activity at 10 µM overview
tested on: HCT-15; assay: NCI-60 screening, one-dose (10 µM) and five-dose, SRB; assay type: cell-based, human; conditions: Homo sapiens; 10 μM; HCT-15, Colon Cancer; read-out: Growth percentage
observation type: activity at 10 µM (%)

>>> number("Cc1nc(SCC(=O)N2CCN(c3cc4c(cc3F)c(=O)c(C(=O)O)cn4C3CC3)CC2)sc1C(=O)/C=C/c1ccc(F)cc1")
96.8
>>> number("Cc1nc(SCC(=O)N2CCN(c3cc4c(cc3F)c(=O)c(C(=O)O)cn4C3CC3)CC2)sc1C(=O)/C=C/c1ccc(N(C)C)cc1")
83.2
>>> number("COc1ccc(/C=C/C(=O)c2sc(SCC(=O)N3CCN(c4cc5c(cc4F)c(=O)c(C(=O)O)cn5C4CC4)CC3)nc2C)cc1")
104
>>> number("CC(=O)c1sc(SCC(=O)N2CCN(c3cc4c(cc3F)c(=O)c(C(=O)O)cn4C3CC3)CC2)nc1C")
102
>>> number("Cc1nc(SCC(=O)N2CCN(c3cc4c(cc3F)c(=O)c(C(=O)O)cn4C3CC3)CC2)sc1C(=O)/C=C/c1cccc(Cl)c1")
26.9
>>> number("Cc1nc(SCC(=O)N2CCN(c3cc4c(cc3F)c(=O)c(C(=O)O)cn4C3CC3)CC2)sc1C(=O)/C=C/c1cccc(F)c1")
-41.7
>>> number("Cc1nc(SCC(=O)N2CCN(c3cc4c(cc3F)c(=O)c(C(=O)O)cn4C3CC3)CC2)sc1C(=O)/C=C/c1ccc(Br)cc1")
106
>>> number("Cc1nc(SCC(=O)N2CCN(c3cc4c(cc3F)c(=O)c(C(=O)O)cn4C3CC3)CC2)sc1C(=O)/C=C/c1ccc([N+](=O)[O-])cc1")
62.3
>>> number("COc1cccc(/C=C/C(=O)c2sc(SCC(=O)N3CCN(c4cc5c(cc4F)c(=O)c(C(=O)O)cn5C4CC4)CC3)nc2C)c1OC")
64.5
>>> number("Cc1nc(SCC(=O)N2CCN(c3cc4c(cc3F)c(=O)c(C(=O)O)cn4C3CC3)CC2)sc1C(=O)/C=C/c1ccc(Cl)cc1")
102
>>> number("Cc1nc(SCC(=O)N2CCN(c3cc4c(cc3F)c(=O)c(C(=O)O)cn4C3CC3)CC2)sc1C(=O)/C=C/c1cccc([N+](=O)[O-])c1")
71.7
